- system name: Autotaxin (ENPP2) (Mus musculus)
- procedure text: Inhibition of recombinant mouse N-terminal polyHis-tagged ATX-beta (Ser49 to Ile862 residues) expressed in HEK293 cells assessed as reduction in cleavage of LPC into LPA and choline using LPC(16:0) as substrate by Amplex red reagent based fluorescence assay
pIC50: −log10 of the molar value.
recorded metric: pIC50

Guide cases for pIC50, answers given:
[[record]]
compound = "NS(=O)(=O)c1ccc(COc2ccc(CNC(=O)[C@@H]3CCC(=O)N3Cc3ccc(F)cc3)cc2)cc1"
measured_result = "< 5.30"

[[record]]
compound = "O=C(O)c1ccc(COc2ccc(CNC(=O)[C@@H]3CCC(=O)N3Cc3ccccc3)cc2)cc1"
measured_result = 5.35

[[record]]
compound = "NS(=O)(=O)c1ccc(C(=O)NC[C@@H]2CCC(=O)N2Cc2ccccc2)cc1"
measured_result = "< 5.30"


Prompt: Can you share its pIC50? I mean this molecule: O=C(NCc1ccc(OCc2ccc(-c3nn[nH]n3)cc2)cc1)[C@@H]1CCC(=O)N1Cc1ccccc1
Completion: < 5.30

Prompt: Can you share its pIC50? I mean this molecule: O=C(O)c1ccc(COc2ccc(CNC(=O)[C@@H]3CCCN3Cc3ccccc3)cc2)cc1
Completion: < 5.30

Prompt: Can you share its pIC50? I mean this molecule: O=C(O)c1ccc(COc2ccc(CNC(=O)[C@@H]3CCCN3Cc3ccc(F)cc3)cc2)cc1
Completion: 6.10

Prompt: Can you share its pIC50? I mean this molecule: COC(=O)c1ccc(COc2ccc(CNC(=O)[C@@H]3CCC(=O)N3Cc3ccccc3)cc2)cc1
Completion: < 5.30

Prompt: Can you share its pIC50? I mean this molecule: O=C(O)c1ccc(COc2ccc(CN3C(=O)CC[C@H]3Cn3ccnc3)cc2)cc1
Completion: < 5.30

Prompt: Can you share its pIC50? I mean this molecule: O=C(NCc1ccc(OCc2ccc(B(O)O)cc2)cc1)[C@@H]1CCC(=O)N1Cc1ccccc1
Completion: 7.46

// provenance: BindingDB's records for doi:10.1016/j.bmc.2019.115216
